Quick list: IC50 per entry.
Target Of Assay: IDH1 wt/IDH1 R132H heterodimer (Homo sapiens (Human), UniProt O75874, R132H)
Sequence (O75874 whole entry R132H): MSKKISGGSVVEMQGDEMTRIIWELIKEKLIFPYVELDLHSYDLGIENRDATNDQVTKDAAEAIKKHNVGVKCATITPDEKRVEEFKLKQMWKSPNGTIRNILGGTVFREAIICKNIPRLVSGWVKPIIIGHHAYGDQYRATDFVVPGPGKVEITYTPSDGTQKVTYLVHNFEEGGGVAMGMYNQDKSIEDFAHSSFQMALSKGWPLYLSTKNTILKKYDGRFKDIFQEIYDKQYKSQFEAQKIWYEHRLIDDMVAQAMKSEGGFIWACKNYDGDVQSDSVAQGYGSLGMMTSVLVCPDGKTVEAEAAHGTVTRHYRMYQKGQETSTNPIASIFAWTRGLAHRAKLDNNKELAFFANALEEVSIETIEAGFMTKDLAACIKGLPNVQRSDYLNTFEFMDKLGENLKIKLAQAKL
Sequence (O75874 whole entry, stated change not applied): as the sequence (O75874 whole entry R132H) above, with H132R counted along it
Method Notes: In vitro assay for IDH1m R132H inhibitors, IDH1 wt/IDH1 R132H heterodimer, NADPH depletion (diaphorase/resazurin)
Format: biochemical
Recorded Conditions: IDH1 wt/R132H heterodimer, NADPH/NADP, not saturated; read-out: IDH1 wt/R132H NADPH/NADP IC50 not saturated

Known results for compounds:
- N#CC1(c2cc(Nc3nc(NCC(F)(F)F)nc(-c4cccc(C(F)(F)F)n4)n3)ccn2)CC1: < 50 nM
- Cc1nc(-c2nc(NC3CC(F)(F)C3)nc(NC3CC(F)(F)C3)n2)co1: 100 to 1000 nM
- Nc1ccc(F)c(-c2nc(Nc3cc(F)cc(F)c3)nc(NC3CCC(F)(F)C3)n2)n1 (stereo not shown): < 50 nM

Now for the compound whose IC50 we want.
# input Data request, read-out IC50, for FC1(F)CCC(Nc2nc(NC3CCC(F)(F)CC3)nc(-c3ccnc(C(F)(F)F)n3)n2)CC1
# output 100 to 1000 nM

----------
Target Of Assay: IDH1 wt/IDH1 R132H heterodimer (Homo sapiens (Human), UniProt O75874, R132H)
Method Notes: In vitro assay for IDH1m R132H inhibitors, IDH1 wt/IDH1 R132H heterodimer, NADPH depletion (diaphorase/resazurin)
Type: biochemical
Recorded Conditions: IDH1 wt/R132H heterodimer, NADPH/NADP, not saturated; read-out: IDH1 wt/R132H NADPH/NADP IC50 not saturated
Quantity: IC50

# annotated cases, reported IC50 shown
* C[C@@H](Nc1nc(N[C@H](C)C2CC2)nc(-c2cncc(Cl)c2)n1)C1CC1 | 100 to 1000 nM
* COCCOCC(C)Nc1nc(N[C@H](C)C2CC2)nc(-c2cccc(C(F)(F)F)n2)n1 (some centres unmarked) | 100 to 1000 nM
* CC(F)(F)c1nc(-c2nc(NC3CC(F)(F)C3)nc(NC3CC(F)(F)C3)n2)cs1 | < 50 nM
* Cc1nc(-c2nc(NC3CCC(F)(F)CC3)nc(NC3CCC(F)(F)CC3)n2)c[nH]1 | > 1000 nM
* C[C@@H](Nc1nc(Nc2ccnc(C3(C#N)CC3)c2)nc(-c2cccc(Cl)n2)n1)C1CC1 | < 50 nM
* Fc1cc(F)cc(Nc2nc(NC3CC(F)(F)C3)nc(-n3ccc(C(F)(F)F)n3)n2)c1 | < 50 nM
* C[C@@H](Nc1nc(NCC(C)(C)C#N)nc(-c2cccc(C(F)(F)F)n2)n1)C1CC1 | 100 to 1000 nM

Field: next compound
# input Which IC50 reading was recorded for the compound FC1(F)CCC(Nc2nc(NC3CCN(c4ccccn4)C3)nc(-c3cccc(C(F)(F)F)n3)n2)C1 (centres unmarked) ?
# output < 50 nM

----------
Test system: U87MG pLVX-IDH2 R140Q-neo cells
Method Notes: U87MG pLVX-IDH2 R140Q-neo cell based assay, 2-HG by LC-MS
Recorded Conditions: Homo sapiens, U-87 MG
pIC50: −log10 of the molar value.
Known pIC50 of a selection of molecules

• FC1(F)CCC(Nc2nc(NC3CCC(F)(F)CC3)nc(-c3nccc(C(F)(F)F)n3)n2)CC1 [Compound 293] = 7.00 to 7.30
• N#CC1(c2cc(Nc3nc(N[C@@H]4CCC(F)(F)C4)nc(-c4cncc(C(F)(F)F)n4)n3)ccn2)CC1 [Compound 378] = > 7.30
• FC1(F)CCC(Nc2nc(NC3CCC(F)(F)CC3)nc(-c3cncc(Cl)n3)n2)CC1 [Compound 147] = > 7.30

Shifting focus to the molecule that follows.
# input What value of pIC50 has been reported for the following molecule? CC[C@H](Nc1nc(N[C@@H](CC)C(F)(F)F)nc(-c2ccnc(C(F)(F)F)n2)n1)C(F)(F)F [Compound 345]
# output 6.00 to 7.00
